system: E. coli #311; assay: In vivo activity (oral, iv; ED50) against E. coli in mice; conditions: Escherichia coli; single oral dose, mice; Table 7; read-out: ED50 SOD (E. coli)
Rule: measured ED50 below 50 mg/kg gets satisfied; anything equal to or greater than 50 mg/kg gets not satisfied.

# count of solved cases: 4
| item-smiles | cat |
| --- | --- |
| CCC(C)(C)C(=O)OCOC(=O)N(CC(=O)Nc1cc(N(C)C)c2c(c1O)C(=O)C1=C(O)[C@]3(O)C(=O)C(C(N)=O)=C(O)[C@@H](N(C)C)[C@@H]3C[C@@H]1C2)C(C)(C)C | satisfied |
| CCCN(CC(=O)Nc1cc(N(C)C)c2c(c1O)C(=O)C1=C(O)[C@]3(O)C(=O)C(C(N)=O)=C(O)[C@@H](N(C)C)[C@@H]3C[C@@H]1C2)C(=O)OCOC(=O)c1ccc(C)cc1 | not satisfied |
| CC(C)CC(=O)OCOC(=O)N(CC(=O)Nc1cc(N(C)C)c2c(c1O)C(=O)C1=C(O)[C@]3(O)C(=O)C(C(N)=O)=C(O)[C@@H](N(C)C)[C@@H]3C[C@@H]1C2)C(C)(C)C | satisfied |
| CN(C)c1cc(NC(=O)CN(C(=O)OCOC(=O)C2CCCCC2)C(C)(C)C)c(O)c2c1C[C@H]1C[C@H]3[C@H](N(C)C)C(O)=C(C(N)=O)C(=O)[C@@]3(O)C(O)=C1C2=O | satisfied |

Now for a further compound.
Task: Check if ED50 falls below 50 mg/kg for CC(C)C(=O)OCOC(=O)N(CC(=O)Nc1cc(N(C)C)c2c(c1O)C(=O)C1=C(O)[C@]3(O)C(=O)C(C(N)=O)=C(O)[C@@H](N(C)C)[C@@H]3C[C@@H]1C2)C(C)(C)C .
Result: not satisfied

----------
The reader will find reported MIC values listed item by item below.
test system: E. coli GC 2236; assay: MIC, broth microdilution; settings: Escherichia coli, GC2236, E. coli GC 2236; Water pre-incubation
Give the value in µg/mL but do not write µg/mL after it.

| molecule | system-tested | numeric-readout |
| --- | --- | --- |
| CCCN(CC(=O)Nc1cc(N(C)C)c2c(c1O)C(=O)C1=C(O)[C@]3(O)C(=O)C(C(N)=O)=C(O)[C@@H](N(C)C)[C@@H]3C[C@@H]1C2)C(=O)OCC | E. coli GC 2236 | 64 |
| CCCCN(CC(=O)Nc1cc(N(C)C)c2c(c1O)C(=O)C1=C(O)[C@]3(O)C(=O)C(C(N)=O)=C(O)[C@@H](N(C)C)C3CC1C2)C(=O)OCOC(=O)C(C)C (some centres unmarked) | E. coli GC 2236 | 16 |

Proceeding to the next molecule to report its MIC.
Task: Give the reported MIC for CCCN(CC(=O)Nc1cc(N(C)C)c2c(c1O)C(=O)C1=C(O)[C@]3(O)C(=O)C(C(N)=O)=C(O)[C@@H](N(C)C)[C@@H]3C[C@@H]1C2)C(=O)OCOC(=O)c1ccc(F)cc1 (system: E. coli GC 2236).
Result: 32

----------
tested on: S. aureus GC 1079; test: MIC, broth microdilution; conditions: Staphylococcus aureus, GC1079, read-out: MINIMAL INHIBITORY CONCENTRATION MIC, pre-incubated in Mouse Serum
The reader will find reported MIC values listed item by item below.
Give the value in µg/mL but do not write µg/mL after it.

| item-smiles | system-tested | MIC / µg/mL |
| --- | --- | --- |
| CC(C)C(=O)OCOC(=O)N(CC(=O)Nc1cc(N(C)C)c2c(c1O)C(=O)C1=C(O)[C@]3(O)C(=O)C(C(N)=O)=C(O)[C@@H](N(C)C)[C@@H]3C[C@@H]1C2)C(C)(C)C | S. aureus GC 1079 | 0.5 |
| CCCN(CC(=O)Nc1cc(N(C)C)c2c(c1O)C(=O)C1=C(O)[C@]3(O)C(=O)C(C(N)=O)=C(O)[C@@H](N(C)C)[C@@H]3C[C@@H]1C2)C(=O)OCOC(=O)c1cc(C)cc(C)c1 | S. aureus GC 1079 | 1 |
| CCCN(CC(=O)Nc1cc(N(C)C)c2c(c1O)C(=O)C1=C(O)[C@]3(O)C(=O)C(C(N)=O)=C(O)[C@@H](N(C)C)[C@@H]3C[C@@H]1C2)C(=O)OCOC(=O)c1ccc(-c2ccccc2)cc1 | S. aureus GC 1079 | 2 |

Task: So what's the measured MIC for this one? CCCCN(CC(=O)Nc1cc(N(C)C)c2c(c1O)C(=O)C1=C(O)[C@]3(O)C(=O)C(C(N)=O)=C(O)[C@@H](N(C)C)[C@@H]3C[C@@H]1C2)C(=O)OCOC(=O)c1ccc(-c2ccccc2)cc1
Result: 4

Task: So what's the measured MIC for this one? CN(C)c1cc(NC(=O)CN(C(=O)OCOC(=O)C2CCCC2)C(C)(C)C)c(O)c2c1C[C@H]1C[C@H]3[C@H](N(C)C)C(O)=C(C(N)=O)C(=O)[C@@]3(O)C(O)=C1C2=O
Result: 0.5

Task: So what's the measured MIC for this one? Cc1ccc(C(=O)OCOC(=O)N(CC(=O)Nc2cc(N(C)C)c3c(c2O)C(=O)C2=C(O)[C@]4(O)C(=O)C(C(N)=O)=C(O)[C@@H](N(C)C)[C@@H]4C[C@@H]2C3)C(C)(C)C)cc1
Result: 1

----------
test system: E. coli GC 4560; experiment: MIC, broth microdilution; conditions: Escherichia coli, GC4560, read-out: MINIMAL INHIBITORY CONCENTRATION MIC, pre-incubated in Water
The reader will find reported MIC values listed item by item below.
Give the value in mg/L but do not write mg/L after it.

Some solved entries appear below for comparison.
| compound | system-tested | numeric-readout |
| --- | --- | --- |
| CN(C)c1cc(NC(=O)CN(C(=O)OCOC(=O)C2CCCC2)C(C)(C)C)c(O)c2c1C[C@H]1C[C@H]3[C@H](N(C)C)C(O)=C(C(N)=O)C(=O)[C@@]3(O)C(O)=C1C2=O [Example 46] | E. coli GC 4560 | 4 |
| CCCCN(CC(=O)Nc1cc(N(C)C)c2c(c1O)C(=O)C1=C(O)[C@]3(O)C(=O)C(C(N)=O)=C(O)[C@@H](N(C)C)[C@@H]3C[C@@H]1C2)C(=O)OCOC(=O)c1cccs1 [Example 23] | E. coli GC 4560 | 8 |
| CCCN(CC(=O)Nc1cc(N(C)C)c2c(c1O)C(=O)C1=C(O)[C@]3(O)C(=O)C(C(N)=O)=C(O)[C@@H](N(C)C)[C@@H]3C[C@@H]1C2)C(=O)OCOC(=O)c1ccsc1 [Example 27] | E. coli GC 4560 | 1 |

Proceeding to the next compound to report its MIC.
Task: So what's the measured MIC for this one? CCCN(CC(=O)Nc1cc(N(C)C)c2c(c1O)C(=O)C1=C(O)[C@]3(O)C(=O)C(C(N)=O)=C(O)[C@@H](N(C)C)[C@@H]3C[C@@H]1C2)C(=O)OCOC(=O)c1cccs1 [Example 25]
Result: 2

----------
test system: E. coli; assay: Range of MIC for E. coli strains; conditions: Escherichia coli, read-out: Range of MIC, E. coli (Water)
property: MIC

Some solved entries appear below for comparison.
| compound | result |
| --- | --- |
| CCCCN(CC(=O)Nc1cc(N(C)C)c2c(c1O)C(=O)C1=C(O)[C@]3(O)C(=O)C(C(N)=O)=C(O)[C@@H](N(C)C)C3CC1C2)C(=O)OCOC(=O)c1ccc(C)cc1 (some centres unmarked) [Example 3] | > 64 µg/mL |
| CN(C)c1cc(NC(=O)CN(C(=O)OCOC(=O)c2ccccc2F)C(C)(C)C)c(O)c2c1C[C@H]1C[C@H]3[C@H](N(C)C)C(O)=C(C(N)=O)C(=O)[C@@]3(O)C(O)=C1C2=O [Example 91] | > 64 µg/mL |
| CCCN(CC(=O)Nc1cc(N(C)C)c2c(c1O)C(=O)C1=C(O)[C@]3(O)C(=O)C(C(N)=O)=C(O)[C@@H](N(C)C)C3CC1C2)C(=O)OCc1oc(=O)oc1-c1ccc(OC)cc1 (some centres unmarked) [Example 111] | 1 to 4 µg/mL |
| CCCN(CC(=O)Nc1cc(N(C)C)c2c(c1O)C(=O)C1=C(O)[C@]3(O)C(=O)C(C(N)=O)=C(O)[C@@H](N(C)C)[C@@H]3C[C@@H]1C2)C(=O)OCOC(=O)C(C)C [Example 10] | 4 to 32 µg/mL |
| CCC(C)(C)C(=O)OCOC(=O)N(CC(=O)Nc1cc(N(C)C)c2c(c1O)C(=O)C1=C(O)[C@]3(O)C(=O)C(C(N)=O)=C(O)[C@@H](N(C)C)[C@@H]3C[C@@H]1C2)C(C)(C)C [Example 44] | > 64 µg/mL |
| CN(C)c1cc(NC(=O)CN(C(=O)OCOC(=O)c2ccc(-c3ccccc3)cc2)C(C)(C)C)c(O)c2c1C[C@H]1C[C@H]3[C@H](N(C)C)C(O)=C(C(N)=O)C(=O)[C@@]3(O)C(O)=C1C2=O [Example 71] | > 64 µg/mL |
| CN(C)c1cc(NC(=O)CN(C(=O)OCOC(=O)c2ccc(C(C)(C)C)cc2)C(C)(C)C)c(O)c2c1C[C@H]1C[C@H]3[C@H](N(C)C)C(O)=C(C(N)=O)C(=O)[C@@]3(O)C(O)=C1C2=O [Example 43] | > 64 µg/mL |
| CCCN(CC(=O)Nc1cc(N(C)C)c2c(c1O)C(=O)C1=C(O)[C@]3(O)C(=O)C(C(N)=O)=C(O)[C@@H](N(C)C)[C@@H]3C[C@@H]1C2)C(=O)OCOC(=O)c1ccc(OC)cc1 [Example 6] | 8 to 64 µg/mL |
| CN(C)c1cc(NC(=O)CN(C(=O)OCOC(=O)c2cccnc2)C(C)(C)C)c(O)c2c1C[C@H]1C[C@H]3[C@H](N(C)C)C(O)=C(C(N)=O)C(=O)[C@@]3(O)C(O)=C1C2=O [Example 88] | 8 to 16 µg/mL |
| CN(C)c1cc(NC(=O)OCOC(=O)C(C)(C)C)c(O)c2c1C[C@H]1C[C@H]3[C@H](N(C)C)C(O)=C(C(N)=O)C(=O)[C@@]3(O)C(O)=C1C2=O [Example 78] | > 64 µg/mL |

Task: So what's the measured MIC for this one? CN(C)c1cc(NC(=O)CN(C(=O)OCOC(=O)c2ccncc2)C(C)(C)C)c(O)c2c1C[C@H]1C[C@H]3[C@H](N(C)C)C(O)=C(C(N)=O)C(=O)[C@@]3(O)C(O)=C1C2=O [Example 89]
Result: 4 to 8 µg/mL

Task: So what's the measured MIC for this one? COc1cc(OC)cc(C(=O)OCOC(=O)N(CC(=O)Nc2cc(N(C)C)c3c(c2O)C(=O)C2=C(O)[C@]4(O)C(=O)C(C(N)=O)=C(O)[C@@H](N(C)C)[C@@H]4C[C@@H]2C3)C(C)(C)C)c1 [Example 98]
Result: > 64 µg/mL
